Experiment: physchem
Description: Dissociation constant, pKa of the compound
Readout type: pKa
API note: the answer field is a bare number with no unit suffix.

These solved cases illustrate the format of a correct answer.
C=CCN(CC=C)C(=O)[C@@]1(c2cccs2)C[C@H]1CN = 9.4
C#CCN(CC)C(=O)[C@@]1(c2cccs2)C[C@H]1CN = 9.4
CCN(CC)C(=O)[C@]1(c2ccccc2)C[C@H]1CN = 9.6

input: # get_value(readout='pKa', item= "C=CCN(Cc1nccs1)C(=O)[C@@]1(c2cccs2)C[C@H]1CN" )
output: 9.4

input: # get_value(readout='pKa', item= "C=C(F)CN(CC)C(=O)[C@@]1(c2cccs2)C[C@H]1CN" )
output: 9.4

input: # get_value(readout='pKa', item= "NC[C@@H]1C[C@@]1(C(=O)N1Cc2ccccc2C1)c1cccs1" )
output: 9.5

input: # get_value(readout='pKa', item= CCN(CC)C(=O)C1(c2ccccc2)CC1CN (stereo not drawn) )
output: 9.5

input: # get_value(readout='pKa', item= "C#CCN(CC#C)C(=O)[C@@]1(c2cccs2)C[C@H]1CN" )
output: 9.3

###

List of IC50 tested on Cytochrome P450 2D6 (Homo sapiens, UniProt P10635).
Sequence (P10635 whole entry): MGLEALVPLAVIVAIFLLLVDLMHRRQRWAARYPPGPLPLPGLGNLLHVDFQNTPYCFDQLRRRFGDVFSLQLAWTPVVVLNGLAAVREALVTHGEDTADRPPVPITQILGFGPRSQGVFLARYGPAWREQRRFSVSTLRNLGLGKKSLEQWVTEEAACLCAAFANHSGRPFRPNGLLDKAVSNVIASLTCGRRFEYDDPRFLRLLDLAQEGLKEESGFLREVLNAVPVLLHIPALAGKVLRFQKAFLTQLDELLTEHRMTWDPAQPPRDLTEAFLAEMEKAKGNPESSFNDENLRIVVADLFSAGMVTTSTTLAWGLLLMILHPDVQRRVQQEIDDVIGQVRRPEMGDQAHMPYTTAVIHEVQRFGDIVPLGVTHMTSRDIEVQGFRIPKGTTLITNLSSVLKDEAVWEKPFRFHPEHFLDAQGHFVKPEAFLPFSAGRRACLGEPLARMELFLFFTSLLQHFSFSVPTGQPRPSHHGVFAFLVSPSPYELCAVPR
Dear colleague, please return just the value in µM, with no unit written.

C=CCN(CC=C)C(=O)[C@@]1(c2cccs2)C[C@H]1CN = 6

Turning now to a further record.
input: Request: IC50, test system Cytochrome P450 2D6 (Homo sapiens, UniProt P10635), entry "C=C(F)CN(CC)C(=O)[C@@]1(c2cccs2)C[C@H]1CN"
output: 6

###

Test: Drug level in Sprague-Dawley rat brain at 30 mg/kg, po after 4 hrs
Format: ADME, organism-based
Design: dose 30 mg/kg, route oral
Settings: read-out: Drug uptake
Listed next: entries and their corresponding concentration at 4 h.
Dear colleague, please return just the value in ng/g, with no unit written.

These solved cases illustrate the format of a correct answer.
C=C(F)CN(CC)C(=O)[C@@]1(c2cccs2)C[C@H]1CN = 31
NC[C@@H]1C[C@@]1(C(=O)N1Cc2ccccc2C1)c1cccs1 = 24
C=CCN(CC=C)C(=O)[C@@]1(c2cccs2)C[C@H]1CN = 26

Turning now to a further record.
input: # get_value(readout='concentration at 4 h', item= "C#CCN(CC)C(=O)[C@@]1(c2cccs2)C[C@H]1CN" )
output: 112

###

Biological target: Transporter (Rattus norvegicus, UniProt Q63380)
Sequence (Q63380 whole entry): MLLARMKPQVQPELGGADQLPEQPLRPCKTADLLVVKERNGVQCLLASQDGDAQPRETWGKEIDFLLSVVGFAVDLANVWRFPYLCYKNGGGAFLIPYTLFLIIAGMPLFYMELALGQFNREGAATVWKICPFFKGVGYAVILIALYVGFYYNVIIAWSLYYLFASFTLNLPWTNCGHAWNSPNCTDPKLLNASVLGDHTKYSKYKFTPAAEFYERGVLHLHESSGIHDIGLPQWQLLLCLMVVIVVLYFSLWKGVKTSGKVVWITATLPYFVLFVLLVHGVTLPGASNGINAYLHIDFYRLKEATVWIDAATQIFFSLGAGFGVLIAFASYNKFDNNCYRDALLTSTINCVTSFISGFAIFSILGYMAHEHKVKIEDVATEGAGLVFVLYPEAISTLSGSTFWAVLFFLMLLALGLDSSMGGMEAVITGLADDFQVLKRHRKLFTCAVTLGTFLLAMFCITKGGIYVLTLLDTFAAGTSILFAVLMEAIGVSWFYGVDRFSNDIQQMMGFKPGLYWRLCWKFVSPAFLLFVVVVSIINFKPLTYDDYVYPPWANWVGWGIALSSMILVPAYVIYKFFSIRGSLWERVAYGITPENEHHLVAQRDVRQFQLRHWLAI
Test: biochemical
Description: Displacement of Levo[ring-2,5,6-3H]norepinephrine from rat synaptosomal NET expressed in HEK293 cells by microplate scintillation counter
Readout type: IC50 (µM)
Dear colleague, please return just the value in µM, with no unit written.

These solved cases illustrate the format of a correct answer.
C=C(F)CN(CC)C(=O)[C@@]1(c2cccs2)C[C@H]1CN = 0.021
C=CCN(CC=C)C(=O)[C@@]1(c2cccs2)C[C@H]1CN = 0.0046

input: # get_value(readout='IC50', item= "NC[C@@H]1C[C@@]1(C(=O)N1Cc2ccccc2C1)c1cccs1" )
output: 0.015

###

Molecular target: UniProt:P23977
Sequence (P23977 whole entry): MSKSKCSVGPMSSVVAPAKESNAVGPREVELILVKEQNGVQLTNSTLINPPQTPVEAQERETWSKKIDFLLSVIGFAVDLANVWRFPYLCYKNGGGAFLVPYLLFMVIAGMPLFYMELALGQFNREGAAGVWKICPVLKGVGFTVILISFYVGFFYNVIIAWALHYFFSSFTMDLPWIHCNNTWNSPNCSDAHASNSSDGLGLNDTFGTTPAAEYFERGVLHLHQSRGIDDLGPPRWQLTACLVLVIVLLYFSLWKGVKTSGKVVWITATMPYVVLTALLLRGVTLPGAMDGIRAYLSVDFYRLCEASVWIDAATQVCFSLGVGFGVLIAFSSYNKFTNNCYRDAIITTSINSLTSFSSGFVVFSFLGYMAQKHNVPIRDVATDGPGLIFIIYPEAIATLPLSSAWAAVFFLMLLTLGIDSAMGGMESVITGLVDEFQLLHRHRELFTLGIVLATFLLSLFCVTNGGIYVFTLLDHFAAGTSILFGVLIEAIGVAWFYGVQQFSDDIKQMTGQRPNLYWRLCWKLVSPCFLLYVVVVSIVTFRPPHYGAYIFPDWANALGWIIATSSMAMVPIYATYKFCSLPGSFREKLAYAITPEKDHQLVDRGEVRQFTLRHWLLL
Readout type: pIC50
Recall that pIC50 is obtained by taking minus log10 of the concentration measured in molar.

NC[C@@H]1C[C@@]1(C(=O)N1Cc2ccccc2C1)c1cccs1 = 5.70

input: Request: pIC50, test system UniProt:P23977, entry CCN(CC)C(=O)C1(c2ccccc2)CC1CN (centres undefined)
output: 4.43
